composite z-score listing for selected compounds.
assay: small molecules captured by biotinylated probe aFGF2 – biochemical, small-molecule microarray, fluorescence 635/667, stem cell growth factor project, primary screen (AID 1067); details: higher = more signal;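 note: measures binding of biotinylated aFGF2 protein to printed compounds on slides; z-score merges feature fluorescence and signal-to-noise across triplicate slides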
Enter the number alone.

- compound: "CCCC[C@@H]1C[C@H]1[C@@H](NC(=O)c1ccccc1)c1ccc(-c2ccccc2)cc1"
  composite z-score: 0.0805
- compound: "CC(C)[C@H]1COC(=O)N1C(=O)[C@H]1[C@@H](c2ccccc2)N(c2ccccc2)O[C@@H]1C"
  composite z-score: -0.204
- compound: "COCCOC(=O)N1C(=O)[C@@]2(c3cc(C#CCCO)ccc31)[C@H](c1ccc(O)cc1)N1[C@H](c3ccccc3)[C@H](c3ccccc3)OC(=O)[C@H]1[C@@H]2C(=O)N1CCCCCCC1"
  composite z-score: 0.2
- compound: "O=C1O[C@@H](c2ccccc2)[C@@H](c2ccccc2)N2[C@@H](c3ccc(O)cc3)[C@]3(C(=O)Nc4ccc(C#CCCO)cc43)[C@@H](C(=O)N3CCCCCCC3)[C@H]12"
  composite z-score: 0.442
- compound: "[N-]=[N+]=Nc1ccccc1[C@H]1OC(c2ccc(OCCCO)cc2)=N[C@@]1(CCS(=O)(=O)c1ccccc1)C(=O)N1CCOCC1"
  composite z-score: 0.45

// next item, composite z-score requested
Request: Consider the compound shown here: O=C1O[C@@H](c2ccccc2)[C@@H](c2ccccc2)N2[C@@H](c3ccc(O)cc3)[C@]3(C(=O)Nc4ccc(C#CCCO)cc43)[C@@H](C(=O)O)[C@H]12 What is its recorded composite z-score?
Result: 0.548
